- Study System: human LSD1(171-852) (Homo sapiens)
- Construct: to give hLSD1(171-852) purified product; made in house; host or cells: Escherichia coli C43(DE3) pLysS
- Assay: Measurement of LSD1 inhibitory activity (time-resolved fluorescence, biotin-histone H3 mono methylated K4 peptide)
- Assay type: biochemical
- Condition Parameters: read-out: LSD1 IC50 value
pIC50: −log10 of the molar value. Structures can show the parent of a compound that is named as a salt.
Measured Quantity: pIC50

// known answers, use as guide
[
  {
    "Molecule": "COc1ccc(CN[C@@H]2C[C@H]2c2ccc(NC(=O)c3cccc(Br)c3)cc2)cc1OC (relative stereo)",
    "pIC50": "> 7.00"
  },
  {
    "Molecule": "Cc1cc(C(=O)Nc2ccc([C@@H]3C[C@H]3NCC3CC3)cc2)nn1C (relative stereo) [Example 157, dihydrochloride]",
    "pIC50": 7.00
  }
]

Query molecule follows.
**Query** Answer briefly: pIC50 recorded on human LSD1(171-852) (Homo sapiens) for Cc1nc(-c2cccc(C(=O)Nc3ccc([C@@H]4C[C@H]4NCC4CC4)cc3)c2)cs1 (relative stereo)
**Result** > 7.00

====

- Study System: human LSD1(171-852) (Homo sapiens, UniProt O60341)
- Construct: to give hLSD1(171-852) purified product; made in house; host or cells: Escherichia coli C43(DE3) pLysS
- Assay: Measurement of LSD1 inhibitory activity (time-resolved fluorescence, biotin-histone H3 mono methylated K4 peptide)
- Assay type: biochemical
- Condition Parameters: read-out: LSD1 IC50 value
pIC50: −log10 of the molar value. Counter-ions that a name gives are not always drawn.
// values below are reported pIC50

[
  {
    "Compound": "CN1CCN(c2ccc(C(=O)Nc3ccc([C@@H]4C[C@H]4NCC4CC4)cc3)cc2)CC1 (relative stereo)",
    "pIC50": "> 7.00"
  },
  {
    "Compound": "O=C(Nc1ccc([C@@H]2C[C@H]2NCc2ccccc2)cc1)c1cccc(Oc2ccccc2)c1 (relative stereo)",
    "pIC50": 6.85
  },
  {
    "Compound": "CN(C)c1ccccc1CN[C@@H]1C[C@H]1c1ccc(NC(=O)c2cccc(C(F)(F)F)c2)cc1 (relative stereo) [Example 142, hydrochloride]",
    "pIC50": 7.00
  },
  {
    "Compound": "O=C(Nc1ccc([C@@H]2C[C@H]2NCC2CC2)cc1)c1ccc2nc(-c3ccco3)[nH]c2c1 (relative stereo)",
    "pIC50": "> 7.00"
  },
  {
    "Compound": "O=C(Nc1ccc([C@@H]2C[C@H]2NC2CCS(=O)(=O)CC2)cc1)c1cccc(C(F)(F)F)c1 (relative stereo) [Example 151, hydrochloride]",
    "pIC50": "> 7.00"
  }
]

**Query** Note pIC50 for the compound shown: O=C(Nc1ccc([C@@H]2C[C@H]2NCc2ccccc2)cc1)c1cccc(Cc2ccccc2)c1 (relative stereo)
**Result** > 7.00

**Query** Note pIC50 for the compound shown: Cn1ncc(C(=O)Nc2ccc([C@@H]3C[C@H]3NCC3CC3)cc2)c1C(F)(F)F (relative stereo) [Example 159, hydrochloride]
**Result** > 7.00

**Query** Note pIC50 for the compound shown: O=C(Nc1ccc([C@@H]2C[C@H]2NCC2CC2)cc1)c1ccc2[nH]ccc2c1 (relative stereo) [Example 114, trifluoroacetate]
**Result** > 7.00

**Query** Note pIC50 for the compound shown: CC(C)(C)c1ccc(C(=O)Nc2ccc([C@@H]3C[C@H]3NCC3CC3)cc2)cc1 (relative stereo) [Example 70, hydrochloride]
**Result** > 7.00

**Query** Note pIC50 for the compound shown: C=CCOC(=O)N1CCC(N[C@@H]2C[C@H]2c2ccc(NC(=O)c3ccc(-c4ccccc4)cc3)cc2)CC1 (relative stereo)
**Result** 6.89

**Query** Note pIC50 for the compound shown: Cc1cc(NC(=O)c2ccccc2)ccc1[C@@H]1C[C@H]1NCC1CC1 (relative stereo) [Example 82, hydrochloride]
**Result** > 7.00

**Query** Note pIC50 for the compound shown: O=C(Nc1ccc([C@@H]2C[C@H]2NCc2ccc3ccccc3c2)cc1)c1ccccc1 (relative stereo)
**Result** > 7.00

**Query** Note pIC50 for the compound shown: O=C(Nc1ccc([C@@H]2C[C@H]2NCC2CC2)cc1)c1ccc(-c2cc[nH]n2)cc1 (relative stereo) [Example 113, hydrochloride]
**Result** > 7.00
